target entity: T1, IFN-αF (human, UniProt P01568 24-189)
T1 construct: also called IFN-α21; alpha F
T1 chain: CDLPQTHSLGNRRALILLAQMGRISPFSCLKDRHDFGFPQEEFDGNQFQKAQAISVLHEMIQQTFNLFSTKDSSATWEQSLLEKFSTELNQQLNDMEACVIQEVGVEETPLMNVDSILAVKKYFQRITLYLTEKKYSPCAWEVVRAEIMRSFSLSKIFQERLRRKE
assay details: ProteOn, one antigen concentration
Exercise: for every item that follows, state its recorded pKd.
Numbers only, as −log10 of the molar value.

# binder, obs value
data = [
    ("IFWM3309 (antibody, V domains shown, VH IFWH591, VL IFWL1006; converted mAb; also called IFWB3044) VH: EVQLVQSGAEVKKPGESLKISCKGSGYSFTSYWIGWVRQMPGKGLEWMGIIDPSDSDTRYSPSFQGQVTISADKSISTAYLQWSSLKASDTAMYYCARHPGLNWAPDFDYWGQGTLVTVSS VL: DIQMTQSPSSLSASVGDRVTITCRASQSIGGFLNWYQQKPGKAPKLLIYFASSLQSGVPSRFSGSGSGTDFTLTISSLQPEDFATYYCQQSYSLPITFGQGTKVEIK", 9.85),
]

Field: next binder
Lab book: pKd of IFWM3305 (antibody, V domains shown, VH IFWH591, VL IFWL998; converted mAb; also called IFWB3040) VH: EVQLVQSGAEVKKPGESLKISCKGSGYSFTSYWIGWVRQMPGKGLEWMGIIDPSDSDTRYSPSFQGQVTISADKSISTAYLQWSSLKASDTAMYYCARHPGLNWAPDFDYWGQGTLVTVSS VL: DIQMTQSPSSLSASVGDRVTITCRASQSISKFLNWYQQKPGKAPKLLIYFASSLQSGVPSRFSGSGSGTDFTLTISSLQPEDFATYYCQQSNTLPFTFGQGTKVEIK noted as 9.95

These measurements were taken from patent US20150368338A1.
